This collection of values is drawn from the supplement of paper PMC10065799.

biological target: FGFR1 (UniProt P11362); assay: phosphorylation enrichment, bacterial display (enrichment ratio); higher = better substrate or ligand; peptides without Tyr show the background;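 note: 11-residue human phosphosite peptides and single-mutation variants displayed on the E. coli surface, counted by deep sequencing, each peptide's frequency after selection divided by its frequency in the unselected input library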;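 note: frequency after pTyr selection over input frequency; kinase dosed for 20-30% of maximal phosphorylation in three min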
Sequence (P11362 whole entry, looked up): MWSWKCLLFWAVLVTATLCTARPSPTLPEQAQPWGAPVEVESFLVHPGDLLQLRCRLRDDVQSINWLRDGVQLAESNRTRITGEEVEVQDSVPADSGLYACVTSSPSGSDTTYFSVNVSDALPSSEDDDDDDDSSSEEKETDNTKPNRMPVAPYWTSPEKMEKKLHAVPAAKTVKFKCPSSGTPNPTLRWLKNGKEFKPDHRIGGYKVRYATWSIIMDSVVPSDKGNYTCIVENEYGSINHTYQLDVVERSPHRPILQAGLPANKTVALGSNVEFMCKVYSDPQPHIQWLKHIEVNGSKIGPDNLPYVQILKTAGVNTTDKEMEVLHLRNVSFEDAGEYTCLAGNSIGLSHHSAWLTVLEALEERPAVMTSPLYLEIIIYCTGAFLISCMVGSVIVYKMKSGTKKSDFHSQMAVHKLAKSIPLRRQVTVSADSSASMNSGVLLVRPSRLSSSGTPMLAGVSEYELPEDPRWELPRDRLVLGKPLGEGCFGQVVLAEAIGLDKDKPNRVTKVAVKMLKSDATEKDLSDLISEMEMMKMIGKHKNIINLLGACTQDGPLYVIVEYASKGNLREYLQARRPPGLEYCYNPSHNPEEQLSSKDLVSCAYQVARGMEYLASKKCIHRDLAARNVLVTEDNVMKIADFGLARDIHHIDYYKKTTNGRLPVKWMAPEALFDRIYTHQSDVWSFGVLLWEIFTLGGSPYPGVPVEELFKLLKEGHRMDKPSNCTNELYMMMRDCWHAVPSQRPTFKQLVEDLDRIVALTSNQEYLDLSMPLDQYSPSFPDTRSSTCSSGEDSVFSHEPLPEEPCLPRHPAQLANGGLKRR

- Polymer sequence: "FGSGNYNVFGN [HNRNPA2B1_Y300_D302V_YF]"
  phosphorylation enrichment: 0.483
- Polymer sequence: "AEFGLYGAMVR [VSX2_Y222_YF]"
  phosphorylation enrichment: 0.538
- Polymer sequence: "GVRYIYTIDGS [DCX_Y105]"
  phosphorylation enrichment: 0.487
- Polymer sequence: "LTQRTYMSENA [GPAA1_Y49]"
  phosphorylation enrichment: 0.452
- Polymer sequence: "CTTIHYMYMCN [TP53_Y234_N235M]"
  phosphorylation enrichment: 0.485
- Polymer sequence: "EIKLAYRRRPP [GRIN2B_Y1109_E1106K]"
  phosphorylation enrichment: 0.537
- Polymer sequence: "VGTKWYMAPEV [ACVRL1_Y375_R374W]"
  phosphorylation enrichment: 0.827
- Polymer sequence: "GENTVYAQVFN [LY9_Y603_M602V]"
  phosphorylation enrichment: 0.599
- Polymer sequence: "EGNERYEGYCV [GRIA3_Y451]"
  phosphorylation enrichment: 0.575
- Polymer sequence: "NFDRIYIYHLR [MYOF_Y1137_V1136I]"
  phosphorylation enrichment: 0.548
- Polymer sequence: "RSFLSYFTSHV [NEFL_Y442_P440L_YF]"
  phosphorylation enrichment: 0.752
- Polymer sequence: "AIIGIYILRDD [CDH23_Y2949]"
  phosphorylation enrichment: 0.484
- Polymer sequence: "WEPFGYAVTRC [PTPRT_Y412]"
  phosphorylation enrichment: 0.547
- Polymer sequence: "QGLRLYRPHLA [BTK_Y617]"
  phosphorylation enrichment: 0.501
- Polymer sequence: "AGKEEYSAMRD [HRAS_Y64_Q61K]"
  phosphorylation enrichment: 0.529
- Polymer sequence: "RSIGEYDVLRG [PRKDC_Y2936]"
  phosphorylation enrichment: 0.36
- Polymer sequence: "MDQAEYQAKIR [DHX58_Y518]"
  phosphorylation enrichment: 0.441
- Polymer sequence: "KMKGEYYRYLA [YWHAG_Y130_D129E]"
  phosphorylation enrichment: 4.78
- Polymer sequence: "GGGGSYNDFGN [HNRNPA1_Y312]"
  phosphorylation enrichment: 0.471
- Polymer sequence: "AHLTEYLSTHF [UQCRC1_Y219_D215H_YF]"
  phosphorylation enrichment: 0.529
- Polymer sequence: "NHFKIYNPCAE [PTEN_Y68_L70P_YF]"
  phosphorylation enrichment: 0.458
- Polymer sequence: "ENEGTYVCIAT [ADAMTSL3_Y1365]"
  phosphorylation enrichment: 1.29
- Polymer sequence: "CEHRGYLYLAI [TEK_Y897]"
  phosphorylation enrichment: 0.726
- Polymer sequence: "IGKAGYTDKMV [ENO1_Y236_V240M]"
  phosphorylation enrichment: 0.377
- Polymer sequence: "CGTPDYIDPEI [PRKCG_Y521_A523D]"
  phosphorylation enrichment: 2.28
- Polymer sequence: "IVVVPYEPPEV [TP53_Y220_S215I]"
  phosphorylation enrichment: 0.511
- Polymer sequence: "GDNNIYVTKII [DLG1_Y349_S347N]"
  phosphorylation enrichment: 0.574
- Polymer sequence: "QDEHGYISLCF [HSPB1_Y133_R136L]"
  phosphorylation enrichment: 1.48
- Polymer sequence: "IYLADYRIMEG [ALOX12B_Y318]"
  phosphorylation enrichment: 2.63
